Each record is given Fulfilled if its reported melting point is strictly below 70 °C. Records at or above 70 °C are given Not fulfilled.

1. O=C(O)C(Cl)(Cl)Cl; Fulfilled

[Q] Field: below-cutoff. Rule: recorded melting point strictly less than 70 °C. Subject: O=C(c1ccccc1)c1ccc(O)cc1O [2,4-dihydroxybenzophenone]
[A] Not fulfilled

[Q] Field: below-cutoff. Rule: recorded melting point strictly less than 70 °C. Subject: CCCCN [1-aminobutane]
[A] Fulfilled

---

Catalogue of melting point readings, one per entry.
All answers are understood in °C, so give the number only.

Below are worked cases with known answers.
1) Clc1ccccc1I; 1
2) NC(=O)/C=C\C(=O)O; 160
3) Clc1c(Cl)c(Cl)c(Cl)c(Cl)c1Cl [Hexachlorobenzene]; 228

Please find the next compound below.
[Q] Return value of melting point for input OC[C@@H](O)[C@H]1O[C@@H]2O[C@H](C(Cl)(Cl)Cl)O[C@@H]2[C@H]1O [1,2-O-[(1R)-2,2,2-Trichloroethylidene]-alpha-D-glucofuranose] , no commentary.
[A] 187

---

Catalogue of melting point readings, one per entry.
All answers are understood in °C, so give the number only.

Below are worked cases with known answers.
1. O=C(C(=O)c1ccccc1)c1ccccc1 [Benzil]; 94.5
2. COc1ccc2[nH]c(S(=O)Cc3ncc(C)c(OC)c3C)nc2c1 (centres undefined) [omeprazole]; 156
3. CCCCCCCc1ccc(O)cc1 [4-n-heptylphenol]; 27
4. COC(=O)c1c(N)sc2c1CCCC2; 128
5. Cc1cccc2c1Cc1ccccc1-2 [1-methylfluorene]; 85
6. CC(C)(N)CO [2-amino-2-methyl-1-propanol]; 26
7. CC(=O)C(=O)O [2-Oxopropanoic acid]; 12
8. O[C@@H]1OC[C@@H](OCc2ccccc2)[C@@H](OCc2ccccc2)[C@@H]1OCc1ccccc1 [2,3,4-tri-o-benzyl-beta-D-arabinopyranose]; 69

Please find the next molecule below.
[Q] Return value of melting point for input CC(=O)OCC1OC(Oc2ccc(C)cc2)C(OC(C)=O)C(OC(C)=O)C1OC(C)=O (centres undefined) [4-methylphenyl 2,3,4,6-tetra-O-acetylhexopyranoside] , no commentary.
[A] 126

---

readout kind: melting point (°C)
All answers are understood in °C, so give the number only.

Below are worked cases with known answers.
1) CCCCC1=NC2(CCCC2)C(=O)N1Cc1ccc(-c2ccccc2-c2nnn[nH]2)cc1 [Irbesartan]; 180
2) CCCCCCCCCCCCCC [tetradecane]; 6
3) Cc1cc(Br)cnc1N [2-amino-5-bromo-3-methylpyridine]; 92

[Q] Return value of melting point for input O=C1CSc2ccccc2N1 [(2h)1,4-benzothiazin-3(4h)-one] , no commentary.
[A] 177

[Q] Return value of melting point for input O=C(Cl)c1ccc(F)cc1 [4-fluorobenzoyl chloride] , no commentary.
[A] 10

[Q] Return value of melting point for input CCOC(O)C(Cl)(Cl)Cl (stereo not drawn) [2,2,2-trichloro-1-ethoxyethanol] , no commentary.
[A] 50

[Q] Return value of melting point for input O=C2/N=C(\Nc1n(cnc12)COCCO)N [acyclovir] , no commentary.
[A] 257

---

Catalogue of melting point readings, one per entry.
All answers are understood in °C, so give the number only.

Below are worked cases with known answers.
1) O=S1(=O)CCCO1; 32
2) CC1=C(/C=C/C(C)=C/C=C/C(C)=C/C=C/C=C(C)/C=C/C=C(C)/C=C/C2=C(C)CCCC2(C)C)C(C)(C)CCC1; 180

[Q] Return value of melting point for input `CCCCCCCC/C=CCCCCCCCCCCCC(=O)O` , no commentary.
[A] 31

[Q] Return value of melting point for input `O=Cc1ccccc1Cl` , no commentary.
[A] 10

[Q] Return value of melting point for input `OB(O)c1cc(-c2ccccc2)cc(-c2ccccc2)c1` , no commentary.
[A] 294

[Q] Return value of melting point for input O=C1CC(c2ccccc2)Oc2cc(O)ccc21 (stereo unspecified) [7-hydroxyflavanone] , no commentary.
[A] 188

[Q] Return value of melting point for input `c1ccc(C2=C(c3ccccc3)C(c3ccccc3)C(c3ccccc3)=C2c2ccccc2)cc1` , no commentary.
[A] 256

[Q] Return value of melting point for input `CC(=O)c1ccc2ccccc2c1` , no commentary.
[A] 55

[Q] Return value of melting point for input `CNC(=O)Oc1cccc2ccccc12` , no commentary.
[A] 142

[Q] Return value of melting point for input O=C1Nc2ccc(Cl)cc2C(c2ccccc2Cl)=NC1O (stereo unspecified) [Lorazepam] , no commentary.
[A] 167

[Q] Return value of melting point for input O=[N+]([O-])c1ccc(/C=C/c2ccccc2[N+](=O)[O-])cc1 [1-nitro-2-[(E)-2-(4-nitrophenyl)ethenyl]benzene] , no commentary.
[A] 139

---

Catalogue of melting point readings, one per entry.
All answers are understood in °C, so give the number only.

[Q] Return value of melting point for input C1=CC2C(C1)[C@@H]1C=C[C@H]2C1 (stereo not given in full) , no commentary.
[A] 32.5

---

readout kind: melting point
State the value with its unit after it.

Below are worked cases with known answers.
1) ClCC(Cl)(Cl)Cl [1,1,1,2-Tetrachloroethane]; -70 °C
2) COc1ccc([N+](=O)[O-])cc1; 52 °C
3) CC(=O)c1sc(-c2ccccc2)cc1N; 121 °C

[Q] Return value of melting point for input `C[C@]12CC[C@@H]3c4ccc(O)cc4CC[C@H]3[C@@H]1CC[C@@H]2O` , no commentary.
[A] 176 °C

[Q] Return value of melting point for input `O=Cc1ccc(Br)cc1` , no commentary.
[A] 57 °C

[Q] Return value of melting point for input `O=Cc1ccccc1O` , no commentary.
[A] -7 °C

[Q] Return value of melting point for input CC(N)C(=O)O (stereo in doubt) , no commentary.
[A] 292 °C

[Q] Return value of melting point for input `Nc1cc(-c2ccccc2)c(O)c(-c2ccccc2)c1` , no commentary.
[A] 149 °C

[Q] Return value of melting point for input `CC1(O)CCCCC1` , no commentary.
[A] 26 °C

[Q] Return value of melting point for input `CNC[C@H](O)[C@@H](O)[C@H](O)[C@H](O)CO` , no commentary.
[A] 130 °C

[Q] Return value of melting point for input `ON=Cc1ccncc1` , no commentary.
[A] 132 °C

[Q] Return value of melting point for input `COc1ccc(Br)c(OC)c1C(=O)O` , no commentary.
[A] 146 °C

[Q] Return value of melting point for input `Sc1ccccc1S` , no commentary.
[A] 23 °C

---

readout kind: melting point
State the value with its unit after it.

Below are worked cases with known answers.
1) N#Cc1ccc(Cc2ccccc2)cc1; 51 °C
2) Nc1ccc(-c2ccc(N)cc2N)c(N)c1; 158 °C
3) O=C1CNC(=O)N1; 222 °C
4) CC(=O)C=C(C)C [mesityl oxide]; -59 °C
5) N#CCc1ccc(CC#N)cc1; 96 °C
6) O=C(O)/C(=C/c1ccccc1[N+](=O)[O-])c1ccccc1 [(E)-2-phenyl-3-(2-nitrophenyl)propenoic acid]; 198 °C

[Q] Return value of melting point for input O=C(O)CC1CCCC1=O (stereo unspecified) , no commentary.
[A] 49 °C

[Q] Return value of melting point for input O=C1CCCCCCCCCCCCCCO1 [pentadecanolide] , no commentary.
[A] 35 °C

[Q] Return value of melting point for input `CN(C)C(=O)Nc1ccc(Cl)cc1` , no commentary.
[A] 173 °C

[Q] Return value of melting point for input COC(=O)c1ccc(C(C)=O)cc1 [methyl_4-acetylbenzoate] , no commentary.
[A] 95 °C

[Q] Return value of melting point for input CC(O)CO (stereo unspecified) , no commentary.
[A] -60 °C

---

readout kind: melting point
State the value with its unit after it.

1. COc1ccccc1-c1ccc(C=C(C(C)=O)C(C)=O)o1 [3-{[5-(2-Methoxyphenyl)-2-furyl]methylene}pentane-2,4-dione]; 146 °C
2. COc1cccc(B(O)O)c1OC; 69 °C
3. OC(CS)C(O)CS (stereo not drawn); 43 °C
4. O=S(=O)(O)F; -87.3 °C
5. Nc1cc2ccccc2oc1=O; 136 °C

[Q] Return value of melting point for input O=C(OC1OC(=O)c2ccccc21)c1ccccc1 (stereo not drawn) [3-oxo-1,3-dihydro-2-benzofuran-1-yl benzoate] , no commentary.
[A] 128 °C

[Q] Return value of melting point for input COC(=O)c1ccc(/C=C\c2ccc(C(=O)OC)cc2)cc1 [dimethyl cis-stilbene-4,4'-dicarboxylate] , no commentary.
[A] 113 °C

[Q] Return value of melting point for input `Cc1ccc(Br)cc1` , no commentary.
[A] 28.5 °C

[Q] Return value of melting point for input `CC1(C)[C@@H]2CC[C@]13CS(=O)(=O)N[C@@H]3C2` , no commentary.
[A] 183 °C

[Q] Return value of melting point for input OC[C@H]1O[C@H](O[C@H]2[C@H](O)[C@@H](O)[C@@H](O[C@H]3[C@H](O)[C@@H](O)C(O)O[C@@H]3CO)O[C@@H]2CO)[C@H](O)[C@@H](O)[C@@H]1O (stereo partly drawn) , no commentary.
[A] 133 °C

[Q] Return value of melting point for input CCCCC(=O)OCC(=O)[C@]1(O)Cc2c(O)c3c(c(O)c2[C@@H](OC2CC(NC(=O)C(F)(F)F)C(O)C(C)O2)C1)C(=O)c1c(OC)cccc1C3=O (stereo partly drawn) , no commentary.
[A] 116 °C

[Q] Return value of melting point for input Oc1ccc2cc(O)ccc2c1 [2,6-dihydroxynaphthalene] , no commentary.
[A] 224 °C

[Q] Return value of melting point for input `Nc1cccc(C(=O)c2cccc(N)c2)c1` , no commentary.
[A] 150 °C

[Q] Return value of melting point for input NC(=O)c1ccc(F)c(Cl)c1 [3-chloro-4-fluorobenzamide] , no commentary.
[A] 146 °C
